Assay: Volume of distribution at steady state in cynomolgus monkey at 2 mg/kg, iv or 10 mg/kg, po
Assay type: ADME, organism-based, Macaca fascicularis
Conditions: in vivo, read-out: Vdss
assay_metric: Vd (L/kg)
Answers are plain numbers, in L/kg.

**Q:** Complete the entry with Vd for Cc1ccc2nc(N3CCS(=O)(=O)c4ccccc4C3)nc(NCC3(N)COC3)c2c1 [ZIRESOVIR]
**A:** 1.9

---

Test: Therapeutic index, ratio of CC50 of human Hep2 cells to EC50 for antiviral activity against human respiratory syncytial virus long strain infected in human Hep2 cells after 5 days by CCK-8 assay
Type: toxicity, cell-based
Conditions: HEp-2 cells, read-out: Ratio CC50/EC50
Answer each item with its documented selectivity ratio at 120 h.
Answers are plain numbers.

Cc1ccc2nc(N3CCS(=O)(=O)c4ccccc4C3)nc(NCC3(N)CCC3)c2c1: 210

Give one value of selectivity ratio at 120 h per listed compound.
1. Cc1ccc2c(c1)S(=O)(=O)CCN(c1cc(NCC3(N)COC3)c3cc(C)ccc3n1)C2
2. Cc1ccc2nc(N3CCS(=O)(=O)c4c(F)cccc4C3)cc(NCC3(N)COC3)c2c1
3. Cc1ccc2nc(N3CCS(=O)(=O)c4ccccc4C3)nc(NCC(C)(C)N)c2c1
4. Cc1ccc2nc(N3CCS(=O)(=O)c4ccccc4C3)nc(NCC3(N)CC3)c2c1
5. NC1(CNc2cc(N3CCS(=O)(=O)c4ccccc4C3)nc3ccc(Cl)cc23)COC1
6. Cc1ccc2nc(N3CCS(=O)(=O)c4ccccc4C3)cc(NCC3(N)COC3)c2c1F

**A:**
1: 18200; 2: 11700; 3: 1250; 4: 3250; 5: 2560; 6: 4040

Measured values drawn from ChEMBL document CHEMBL4364260 for this set.
